Assignment: determine reported melting temperature for the given sequences.
# Tested on: HeLa Kyoto
# Protocol Description: melting temperature (median over replicates), in situ; higher = more thermally stable
# Condition Details: cell cycle stage: G1/S
Numbers only, in °C.

Take a look at these entries with their results.
[
  {
    "Residues": "MDSDDEMVEEAVEGHLDDDGLPHGFCTVTYSSTDRFEGNFVHGEKNGRGKFFFFDGSTLEGYYVDDALQGQGVYTYEDGGVLQGTYVDGELNGPAQEYDTDGRLIFKGQYKDNIRHGVCWIYYPDGGSLVGEVNEDGEMTGEKIAYVYPDERTALYGKFIDGEMIEGKLATLMSTEEGRPHFELMPGNSVYHFDKSTSSCISTNALLPDPYESERVYVAESLISSAGEGLFSKVAVGPNTVMSFYNGVRITHQEVDSRDWALNGNTLSLDEETVIDVPEPYNHVSKYCASLGHKANHSFTPNCIYDMFVHPRFGPIKCIRTLRAVEADEELTVAYGYDHSPPGKSGPEAPEWYQVELKAFQATQQK [SETD7]",
    "melting temperature (°C)": 48.7
  },
  {
    "Residues": "MAAAVVLAAGLRAARRAVAATGVRGGQVRGAAGVTDGNEVAKAQQATPGGAAPTIFSRILDKSLPADILYEDQQCLVFRDVAPQAPVHFLVIPKKPIPRISQAEEEDQQLLGHLLLVAKQTAKAEGLGDGYRLVINDGKLGAQSVYHLHIHVLGGRQLQWPPG [HINT2]",
    "melting temperature (°C)": 54.9
  },
  {
    "Residues": "MRLVILDNYDLASEWAAKYICNRIIQFKPGQDRYFTLGLPTGSTPLGCYKKLIEYHKNGHLSFKYVKTFNMDEYVGLPRNHPESYHSYMWNNFFKHIDIDPNNAHILDGNAADLQAECDAFENKIKEAGGIDLFVGGIGPDGHIAFNEPGSSLVSRTRLKTLAMDTILANAKYFDGDLSKVPTMALTVGVGTVMDAREVMILITGAHKAFALYKAIEEGVNHMWTVSAFQQHPRTIFVCDEDATLELRVKTVKYFKGLMHVHNKLVDPLFSMKDGN [GNPDA2]",
    "melting temperature (°C)": 58.1
  },
  {
    "Residues": "MDIRPNHTIYINNMNDKIKKEELKRSLYALFSQFGHVVDIVALKTMKMRGQAFVIFKELGSSTNALRQLQGFPFYGKPMRIQYAKTDSDIISKMRGTFADKEKKKEKKKAKTVEQTATTTNKKPGQGTPNSANTQGNSTPNPQVPDYPPNYILFLNNLPEETNEMMLSMLFNQFPGFKEVRLVPGRHDIAFVEFENDGQAGAARDALQGFKITPSHAMKITYAKK [SNRPB2]",
    "melting temperature (°C)": 54.2
  },
  {
    "Residues": "MLGLLVALLALGLAVFALLDVWYLVRLPCAVLRARLLQPRVRDLLAEQRFPGRVLPSDLDLLLHMNNARYLREADFARVAHLTRCGVLGALRELRAHTVLAASCARHRRSLRLLEPFEVRTRLLGWDDRAFYLEARFVSLRDGFVCALLRFRQHLLGTSPERVVQHLCQRRVEPPELPADLQHWISYNEASSQLLRMESGLSDVTKDQ [THEM6]",
    "melting temperature (°C)": 55.3
  },
  {
    "Residues": "MAMLVLVPGRVMRPLGGQLWRFLPRGLEFWGPAEGTARVLLRQFCARQAEAWRASGRPGYCLGTRPLSTARPPPPWSQKGPGDSTRPSKPGPVSWKSLAITFAIGGALLAGMKHVKKEKAEKLEKERQRHIGKPLLGGPFSLTTHTGERKTDKDYLGQWLLIYFGFTHCPDVCPEELEKMIQVVDEIDSITTLPDLTPLFISIDPERDTKEAIANYVKEFSPKLVGLTGTREEVDQVARAYRVYYSPGPKDEDEDYIVDHTIIMYLIGPDGEFLDYFGQNKRKGEIAASIATHMRPYRKKS [SCO1]",
    "melting temperature (°C)": 49.8
  }
]

For every record below, what is its melting temperature?
1. MAAGAAEAAVAAVEEVGSAGQFEELLRLKAKSLLVVHFWAPWAPQCAQMNEVMAELAKELPQVSFVKLEAEGVPEVSEKYEISSVPTFLFFKNSQKIDRLDGAHAPELTKKVQRHASSGSFLPSANEHLKEDLNLRLKKLTHAAPCMLFMKGTPQEPRCGFSKQMVEILHKHNIQFSSFDIFSDEEVRQGLKAYSSWPTYPQLYVSGELIGGLDIIKELEASEELDTICPKAPKLEERLKVLTNKASVMLFMKGNKQEAKCGFSKQILEILNSTGVEYETFDILEDEEVRQGLKAYSNWPTYPQLYVKGELVGGLDIVKELKENGELLPILRGEN [GLRX3]
2. MAASLRLLGAASGLRYWSRRLRPAAGSFAAVCSRSVASKTPVGFIGLGNMGNPMAKNLMKHGYPLIIYDVFPDACKEFQDAGEQVVSSPADVAEKADRIITMLPTSINAIEAYSGANGILKKVKKGSLLIDSSTIDPAVSKELAKEVEKMGAVFMDAPVSGGVGAARSGNLTFMVGGVEDEFAAAQELLGCMGSNVVYCGAVGTGQAAKICNNMLLAISMIGTAEAMNLGIRLGLDPKLLAKILNMSSGRCWSSDTYNPVPGVMDGVPSANNYQGGFGTTLMAKDLGLAQDSATSTKSPILLGSLAHQIYRMMCAKGYSKKDFSSVFQFLREEETF [HIBADH]

1: 49.6; 2: 55.4

For every record below, what is its melting temperature?
1. MNPTLILAAFCLGIASATLTFDHSLEAQWTKWKAMHNRLYGMNEEGWRRAVWEKNMKMIELHNQEYREGKHSFTMAMNAFGDMTSEEFRQVMNGFQNRKPRKGKVFQEPLFYEAPRSVDWREKGYVTPVKNQGQCGSCWAFSATGALEGQMFRKTGRLISLSEQNLVDCSGPQGNEGCNGGLMDYAFQYVQDNGGLDSEESYPYEATEESCKYNPKYSVANDTGFVDIPKQEKALMKAVATVGPISVAIDAGHESFLFYKEGIYFEPDCSSEDMDHGVLVVGYGFESTESDNNKYWLVKNSWGEEWGMGGYVKMAKDRRNHCGIASAASYPTV [CTSL]
2. MSHTEVKLKIPFGNKLLDAVCLVPNKSLTYGIILTHGASGDMNLPHLMSLASHLASHGFFCLRFTCKGLNIVHRIKAYKSVLNYLKTSGEYKLAGVFLGGRSMGSRAAASVMCHIEPDDGDDFVRGLICISYPLHHPKQQHKLRDEDLFRLKEPVLFVSGSADEMCEKNLLEKVAQKMQAPHKIHWIEKANHSMAVKGRSTNDVFKEINTQILFWIQEITEMDKKCH [TEX30]
3. MGRIFLDHIGGTRLFSCANCDTILTNRSELISTRFTGATGRAFLFNKVVNLQYSEVQDRVMLTGRHMVRDVSCKNCNSKLGWIYEFATEDSQRYKEGRVILERALVRESEGFEEHVPSDNS [YPEL5]

1: 53.9; 2: 48.7; 3: 50.7

====

# Test system: HeLa Kyoto
# Protocol Description: thermal stability score vs G1/S (z-score of summed log2 fold changes over temperatures); higher = more thermally stable than in G1/S
# Condition Details: cell cycle stage: mitosis
Assignment: determine reported thermal stability score for the given sequences.

Take a look at these entries with their results.
[
  {
    "Residues": "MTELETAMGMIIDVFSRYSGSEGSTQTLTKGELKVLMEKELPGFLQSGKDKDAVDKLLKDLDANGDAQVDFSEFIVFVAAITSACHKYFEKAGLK [S100P]",
    "Result": -5.53
  },
  {
    "Residues": "MAAPGPALCLFDVDGTLTAPRQKITKEMDDFLQKLRQKIKIGVVGGSDFEKVQEQLGNDVVEKYDYVFPENGLVAYKDGKLLCRQNIQSHLGEALIQDLINYCLSYIAKIKLPKKRGTFIEFRNGMLNVSPIGRSCSQEERIEFYELDKKENIRQKFVADLRKEFAGKGLTFSIGGQISFDVFPDGWDKRYCLRHVENDGYKTIYFFGDKTMPGGNDHEIFTDPRTMGYSVTAPEDTRRICELLFS [PMM2]",
    "Result": 3.25
  }
]

Turning to the following sequence.
Give the reported thermal stability score for MVRTKTWTLKKHFVGYPTNSDFELKTAELPPLKNGEVLLEALFLTVDPYMRVAAKRLKEGDTMMGQQVAKVVESKNVALPKGTIVLASPGWTTHSISDGKDLEKLLTEWPDTIPLSLALGTVGMPGLTAYFGLLEICGVKGGETVMVNAAAGAVGSVVGQIAKLKGCKVVGAVGSDEKVAYLQKLGFDVVFNYKTVESLEETLKKASPDGYDCYFDNVGGEFSNTVIGQMKKFGRIAICGAISTYNRTGPLPPGPPPEIVIYQELRMEAFVVYRWQGDARQKALKDLLKWVLEGKIQYKEYIIEGFENMPAAFMGMLKGDNLGKTIVKA [PTGR1] (system: HeLa Kyoto).
-1.48
